Target: T1, 4H675-AA
T1 chain: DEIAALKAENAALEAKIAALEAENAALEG
Test: two-hybrid library CCmax;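 also: natural log of median RNA to DNA barcode read ratio; higher means stronger binding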
Conditions: mean of both orientations
interaction score less than -1 is class 1; interaction score greater than or equal to -1 is class 0.

Solved entries (count: 10):
In: Hi there! Is interaction score for DKNAALKAKIAALKAKIAALEAENAALEG [4H3939-AA] below -1, do you know?
Out: class 1

In: Hi there! Is interaction score for DKNAALKAEIAALKAENAALEAEIAALKG [4H3666-AA] below -1, do you know?
Out: class 1

In: Hi there! Is interaction score for DEIAALKAENAALEAEIAALKAKNAALKG [4H656-AA] below -1, do you know?
Out: class 0

In: Hi there! Is interaction score for DENAALEAKIAALKAKIAALKAKNAALEG [4H1391-AA] below -1, do you know?
Out: class 1

In: Hi there! Is interaction score for DENAALKAKIAALEAENAALEAEIAALEG [4H1809-AA] below -1, do you know?
Out: class 1

In: Hi there! Is interaction score for DEIAALKAKNAALKAKIAALEAKNAALKG [4H1000-AA] below -1, do you know?
Out: class 0

In: Hi there! Is interaction score for DKIAALEAENAALKAKIAALKAENAALEG [4H2283-AA] below -1, do you know?
Out: class 0

In: Hi there! Is interaction score for DENAALEAEIAALKAENAALEAKIAALEG [4H1109-AA] below -1, do you know?
Out: class 0

In: Hi there! Is interaction score for DENAALKAKIAALEAKNAALKAKIAALKG [4H1854-AA] below -1, do you know?
Out: class 0

In: Hi there! Is interaction score for DENAALEAEIAALKAKNAALKAEIAALKG [4H1146-AA] below -1, do you know?
Out: class 0

***
In: Hi there! Is interaction score for DEIAALEAKNAALEAEIAALEAKNAALEG [4H391-AA] below -1, do you know?
Out: class 1

In: Hi there! Is interaction score for DKNAALKAEIAALKAKNAALKAKIAALEG [4H3709-AA] below -1, do you know?
Out: class 0

In: Hi there! Is interaction score for DKNAALKAKIAALKAEIAALKAKNAALKG [4H3920-AA] below -1, do you know?
Out: class 1

In: Hi there! Is interaction score for DKIAALKAKNAALKAENAALEAKIAALEG [4H3029-AA] below -1, do you know?
Out: class 1
